Test system: ragweed
Experiment: Test A postemergence
Type: in vivo, Ambrosia artemisiifolia
Conditions: Ambrosia artemisiifolia, post-emergence, 240 h, 500 g ai/ha, postemergence, 10 days, visual injury, 0 to 100 scale (0 no effect, 100 complete control); read-out: Plant response rating, Ragweed
Exam item: assign met to entries whose pest or weed control at 500 g/ha is below 50% and not met to entries at or above 50%. Note that a value of exactly 50% receives not met.

Some solved cases for reference:
query: API: query returns whether the molecule falls strictly under 50% in pest or weed control at 500 g/ha. Query: Cc1ccc(-n2cnc(C(C)C)n2)cc1C(=O)N1C[C@H](C)Oc2c(Cl)cccc21 [Compound 73]
result: not met

query: Given the entry Cc1cccc2c1O[C@@H](C)CN2C(=O)c1cccc(-n2cnn(C)c2=O)c1 [Compound 117] , would its reported pest or weed control at 500 g/ha be below 50%?
result: met

query: Report whether reported pest or weed control at 500 g/ha is lower than 50% (strictly) for Cc1ccc(-n2cnc(C(C)(C)C)n2)cc1C(=O)N1C[C@H](C)Oc2c(Cl)cccc21 [Compound 76]
result: not met

Next:
query: Is 50% strictly greater than the molecule's reported pest or weed control at 500 g/ha? molecule: C[C@H]1CN(C(=S)c2cccc(-n3cncn3)c2)c2cccc(Cl)c2O1 [Compound 139]
result: met
